biological target: SIK2 (Homo sapiens); assay: SIK2 Enzymatic Assay High Version 2 (High ATP); assay type: biochemical; conditions: enzyme 6 nM, 6 mM ATP and 400 μM HDAC5tide (each 2× final concentration); 30 minutes pre-incubation, 2 hours; ADP-Glo Max luminescence; read-out: SIK2 high ATP IC50 (μM) (Test Example 2)
compounds and their reported log10(IC50)
In our notation, the value equals log10 of IC50 in µM.

| Compound | Test Target | log10(IC50) |
| --- | --- | --- |
| COc1cc(Nc2cc3cc(-c4cc(C)ncc4O[C@H]4CC[C@H](O)CC4)ccn3n2)cc(OC(F)F)c1C(=O)NC1CC1 | SIK2 (Homo sapiens) | -1.35 |
| Cc1cc(-c2ccn3nc(Nc4cc(C)c(C)nn4)cc3c2)c(OCC(C)(C)O)cn1 | SIK2 (Homo sapiens) | -1.19 |
| Cc1cc(Nc2cc3cc(-c4cc(OC(F)F)ncc4OC[C@@H]4CC(=O)NC4(C)C)ccn3n2)nc(C)n1 (single isomer, unassigned) [Example 731] | SIK2 (Homo sapiens) | -2.00 |
| Cc1cc(-c2ccn3nc(Nc4cc(C)nc(N5CCOCC5)n4)cc3c2)c(OCC(C)(C)O)cn1 | SIK2 (Homo sapiens) | -1.78 |

Given the compound Cc1cc(-c2ccn3nc(Nc4cc(C)nc(C)n4)cc3c2)c(OCCC(C)(C)C#N)cn1 , what is its reported log10(IC50)?
-2.39

Given the compound Cc1cc(-c2ccn3nc(Nc4cc(C)c(=O)n(CCOC(F)F)n4)cc3c2)c(O[C@H]2CC[C@H](O)CC2)cn1 , what is its reported log10(IC50)?
-2.37

Given the compound Cc1cc(-c2ccn3nc(NC(=O)C4CC4)cc3c2)c(OC[C@@](C)(O)C(F)(F)F)cn1 (single isomer, unassigned) , what is its reported log10(IC50)?
-1.44

Given the compound Cc1cc(-c2ccn3nc(Nc4cc(C)nc(C)n4)cc3c2)c(OC[C@@H]2COC3(CCCC3)O2)cn1 (single isomer, unassigned) , what is its reported log10(IC50)?
-1.80

Given the compound Cn1ccc(Nc2cc3cc(-c4cc(OC(F)F)ncc4OCC(C)(C)C#N)ccn3n2)n1 , what is its reported log10(IC50)?
-2.21

Given the compound COc1cc(Nc2cc3cc(-c4cc(C)ncc4O[C@H]4CC[C@H](O)CC4)ccn3n2)ccc1C(=O)NC1CC1 , what is its reported log10(IC50)?
-1.35

Given the compound COc1cc(Nc2cc3cc(-c4cc(C)ncc4O[C@H]4CC[C@H](O)CC4)ccn3n2)cc(OC)c1C(=O)NC1CC1 , what is its reported log10(IC50)?
-1.62

----------
molecular target: SIK2 (Homo sapiens, UniProt Q9H0K1); test: SIK2 Enzymatic Assay High Version 2 (High ATP); assay type: biochemical
Sequence (Q9H0K1 whole entry, species assumed): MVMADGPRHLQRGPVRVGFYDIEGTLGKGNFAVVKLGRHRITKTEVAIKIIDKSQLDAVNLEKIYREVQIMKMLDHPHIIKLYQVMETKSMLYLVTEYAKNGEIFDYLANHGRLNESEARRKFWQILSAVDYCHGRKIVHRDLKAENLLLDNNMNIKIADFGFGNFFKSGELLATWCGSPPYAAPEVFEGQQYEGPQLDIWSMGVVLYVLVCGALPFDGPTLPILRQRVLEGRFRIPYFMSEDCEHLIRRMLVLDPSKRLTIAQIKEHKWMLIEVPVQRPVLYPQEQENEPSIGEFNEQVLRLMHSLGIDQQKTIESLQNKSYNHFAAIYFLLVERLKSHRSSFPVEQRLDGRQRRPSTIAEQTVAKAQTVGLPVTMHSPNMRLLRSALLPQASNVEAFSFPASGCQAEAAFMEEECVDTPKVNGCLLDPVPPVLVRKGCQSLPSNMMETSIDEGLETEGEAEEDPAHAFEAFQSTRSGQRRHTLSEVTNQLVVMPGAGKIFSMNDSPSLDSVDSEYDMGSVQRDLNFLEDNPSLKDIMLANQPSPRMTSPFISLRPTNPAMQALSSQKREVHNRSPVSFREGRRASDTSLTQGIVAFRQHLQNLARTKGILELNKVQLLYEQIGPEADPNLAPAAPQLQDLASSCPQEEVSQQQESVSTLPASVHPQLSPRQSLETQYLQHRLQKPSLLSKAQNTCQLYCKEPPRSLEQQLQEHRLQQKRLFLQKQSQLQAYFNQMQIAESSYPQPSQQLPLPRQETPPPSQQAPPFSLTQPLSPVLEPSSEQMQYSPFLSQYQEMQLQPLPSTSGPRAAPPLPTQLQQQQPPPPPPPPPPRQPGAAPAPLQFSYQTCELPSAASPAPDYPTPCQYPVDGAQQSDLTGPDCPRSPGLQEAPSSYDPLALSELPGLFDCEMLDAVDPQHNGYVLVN
compounds and their reported IC50
Hi! Could you send only the number? It should be in µM, unit omitted.

Given the compound Cc1cc(-c2ccn3nc(Nc4ccncn4)cc3c2)c(O[C@H]2C[C@H]3COC[C@@H](C2)N3)cn1 , what is its reported IC50?
0.000851

Given the compound CN1CC[C@@H](COc2cnc(C#N)cc2-c2ccn3nc(Nc4ccncc4)cc3c2)C1 , what is its reported IC50?
0.203

Given the compound Cc1ccnc(Nc2cc3cc(-c4cc(C)ncc4OC[C@@H]4CNCCO4)ccn3n2)c1 , what is its reported IC50?
0.0115

Taken from patent US20240158392A1.
